target: Prostaglandin D2 receptor 2 (Homo sapiens) (UniProt Q9Y5Y4); assay: Antagonist activity at human CRTH2 receptor expressed in […] cells assessed as inhibition of beta arrestin translocation by bioluminescence resonance energy transfer assay relative to control; type: functional, cell-based
measurement_type: Efficacy (%)

Below, each entry is followed by its recorded Efficacy result.
O=C(O)Cc1sc(NCCc2ccccc2)nc1-c1ccc(Cl)cc1 : 50
O=C(O)Cc1sc(C(c2ccc(F)cc2)c2ccc(F)cc2)nc1-c1ccccc1 : 80
COc1ccc(-c2nc(C(c3ccccc3)c3ccccc3)sc2CC(=O)O)cc1 : 55

P = O=C(O)Cc1sc(C2(c3ccccc3)CCNCC2)nc1-c1ccc(Cl)cc1
Q = COc1ccc(C(c2ccccc2)c2nc(-c3ccc(F)cc3)c(CC(=O)O)s2)cc1 (stereo not given)
IN: Between item P and item Q , which reported Efficacy is smaller? Identify your pick by its label.
OUT: P

###

target: CYP3A4 (Homo sapiens); assay: Inhibition of CYP3A4 at 1 uM; type: ADME
Sequence (P08684 whole entry): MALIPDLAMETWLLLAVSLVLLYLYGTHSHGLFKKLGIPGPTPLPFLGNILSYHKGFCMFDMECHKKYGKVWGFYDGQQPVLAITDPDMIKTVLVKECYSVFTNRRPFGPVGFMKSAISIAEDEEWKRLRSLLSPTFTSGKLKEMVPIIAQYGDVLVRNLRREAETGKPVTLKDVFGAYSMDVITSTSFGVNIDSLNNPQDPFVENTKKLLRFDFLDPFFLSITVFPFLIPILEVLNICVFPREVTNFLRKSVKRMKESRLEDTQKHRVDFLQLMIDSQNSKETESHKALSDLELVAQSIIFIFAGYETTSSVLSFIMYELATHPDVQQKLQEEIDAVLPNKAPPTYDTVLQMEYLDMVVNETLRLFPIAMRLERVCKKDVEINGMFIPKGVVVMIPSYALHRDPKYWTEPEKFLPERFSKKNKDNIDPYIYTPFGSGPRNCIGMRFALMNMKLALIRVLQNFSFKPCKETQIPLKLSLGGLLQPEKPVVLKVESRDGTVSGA
measurement_type: inhibition at 1 µM (%)

a = O=C(O)Cc1sc(C(c2ccccc2)c2ccccc2)nc1-c1ccc(Cl)cc1
b = COc1ccc(C(c2ccccc2)c2nc(-c3ccc(F)cc3)c(CC(=O)O)s2)cc1 (configuration not stated)
IN: Which item exceeds the other in inhibition at 1 µM, a or b ? In your reply, give the label of the chosen option.
OUT: a
(a: 69%, b: 4.4%)

###

molecular target: Prostaglandin D2 receptor 2 (Homo sapiens); test: Displacement of[3H]PGD2 from human CRTH2 receptor expressed in […] cells; type: cell-based
measurement_type: IC50 (nM)

Examples from the recorded data:
O=C(O)Cc1sc(C2COc3ccccc3O2)nc1-c1ccc(Cl)cc1 (configuration not stated) : 500
O=C(O)Cc1sc(C(c2ccccc2)c2ccc(F)cc2)nc1-c1ccc(Cl)cc1 (configuration not stated) : 17
Cn1cc(-c2nc(C(c3ccc(F)cc3)c3ccc(F)cc3)sc2CC(=O)O)cn1 : 1300
N#Cc1cccc(-c2nc(C(c3ccc(F)cc3)c3ccc(F)cc3)sc2CC(=O)O)c1 : 20
N#Cc1cc(-c2nc(C(c3ccc(F)cc3)c3ccc(F)cc3)sc2CC(=O)O)ccc1F : 57

1 = O=C(O)Cc1sc(C(c2ccccc2)c2cccc(Cl)n2)nc1-c1ccc(Cl)cc1 (configuration not stated)
2 = O=C(O)Cc1sc(C(c2ccc(F)cc2)c2ccc(F)cc2)nc1-c1ccnc(Cl)c1
IN: In the pair 1 and 2 , the larger recorded IC50 belongs to which? Mark your answer with the label of the selected entry.
OUT: 1
(1: 3200 nM, 2: 3.1 nM)

###

molecular target: UniProtKB P10635; assay: Inhibition of CYP2D6 at 1 uM; format: ADME
Sequence (P10635 whole entry): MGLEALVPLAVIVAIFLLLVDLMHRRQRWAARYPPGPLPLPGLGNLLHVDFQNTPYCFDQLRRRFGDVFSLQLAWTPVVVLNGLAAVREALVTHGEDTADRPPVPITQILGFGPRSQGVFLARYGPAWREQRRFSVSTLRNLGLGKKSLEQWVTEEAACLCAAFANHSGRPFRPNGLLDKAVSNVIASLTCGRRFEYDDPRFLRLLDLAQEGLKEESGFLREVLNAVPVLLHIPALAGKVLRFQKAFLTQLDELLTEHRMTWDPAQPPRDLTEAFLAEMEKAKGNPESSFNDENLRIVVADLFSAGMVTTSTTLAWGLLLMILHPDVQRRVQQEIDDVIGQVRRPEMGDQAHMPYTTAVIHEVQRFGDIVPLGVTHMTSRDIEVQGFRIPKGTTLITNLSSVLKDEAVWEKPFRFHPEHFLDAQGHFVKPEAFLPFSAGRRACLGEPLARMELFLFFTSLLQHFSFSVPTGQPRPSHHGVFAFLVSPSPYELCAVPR
measurement_type: inhibition at 1 µM (%)

a = O=C(O)Cc1sc(C(c2ccccc2)c2ccccc2)nc1-c1ccc(Cl)cc1
b = COc1ccc(C(c2ccccc2)c2nc(-c3ccc(F)cc3)c(CC(=O)O)s2)cc1 (configuration not stated)
IN: Quick check, higher inhibition at 1 µM between a and b ? Record your answer as the label of the chosen record.
OUT: a
(a: 97.8%, b: 5.8%)

###

Target: Prostaglandin D2 receptor 2 (Homo sapiens)
Sequence (Q9Y5Y4 whole entry): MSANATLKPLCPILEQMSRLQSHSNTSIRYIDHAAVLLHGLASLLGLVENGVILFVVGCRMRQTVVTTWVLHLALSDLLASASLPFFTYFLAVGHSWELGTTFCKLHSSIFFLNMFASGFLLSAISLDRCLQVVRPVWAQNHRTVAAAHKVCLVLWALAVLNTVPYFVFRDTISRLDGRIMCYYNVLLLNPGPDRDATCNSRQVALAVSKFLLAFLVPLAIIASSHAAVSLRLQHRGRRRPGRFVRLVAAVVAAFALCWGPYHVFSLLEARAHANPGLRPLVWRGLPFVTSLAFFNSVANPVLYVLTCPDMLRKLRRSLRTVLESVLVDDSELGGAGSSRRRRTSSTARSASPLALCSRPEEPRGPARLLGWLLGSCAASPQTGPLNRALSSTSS
Experiment: Displacement of[3H]PGD2 from human CRTH2 receptor expressed in […] cells
Type: cell-based
measurement_type: IC50 (µM)

Example entries begin here.
Cc1cc(-c2nc(C(c3ccc(F)cc3)c3ccc(F)cc3)sc2CC(=O)O)ccn1 : 0.0031
O=C(O)Cc1sc(C(c2ccccc2)c2ccccc2)nc1-c1ccccc1 : 0.57

P = O=C(O)Cc1sc(NCc2ccccc2)nc1-c1ccc(Cl)cc1
Q = O=C(O)Cc1sc(C(c2ccccc2)c2ccccc2)nc1-c1ccc(F)c(F)c1
R = COc1ccc(Cl)cc1-c1nc(C(c2ccccc2)c2ccccc2)sc1CC(=O)O
IN: Sort the 3 compounds by IC50; largest first, smallest last. Write the labels, ordered according to the request.
OUT: R, P, Q
(R: 9.4 µM, P: 0.44 µM, Q: 0.0041 µM)

###

Target: Prostaglandin D2 receptor 2 (Homo sapiens) (UniProt Q9Y5Y4)
Sequence (whole entry): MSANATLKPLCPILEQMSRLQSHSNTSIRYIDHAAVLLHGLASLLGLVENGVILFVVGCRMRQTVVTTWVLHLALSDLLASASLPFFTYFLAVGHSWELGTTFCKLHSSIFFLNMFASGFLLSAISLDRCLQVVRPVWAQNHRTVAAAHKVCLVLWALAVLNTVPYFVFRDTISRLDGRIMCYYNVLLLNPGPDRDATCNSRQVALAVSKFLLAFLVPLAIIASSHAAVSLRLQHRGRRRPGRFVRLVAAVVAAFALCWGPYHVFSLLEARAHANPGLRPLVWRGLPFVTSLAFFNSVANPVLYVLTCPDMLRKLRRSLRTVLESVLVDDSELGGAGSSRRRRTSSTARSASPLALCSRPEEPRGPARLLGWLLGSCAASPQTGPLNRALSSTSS
Assay: Antagonist activity at human CRTH2 receptor expressed in […] cells assessed as inhibition of beta arrestin translocation by bioluminescence resonance energy transfer assay relative to control
Type: functional, cell-based
measurement_type: Efficacy (%)

Would you please look over these solved cases?
O=C(O)Cc1sc(C(c2ccccc2)c2ccccc2)nc1-c1ccc(Cl)cc1 : 50
Cc1cc(-c2nc(C(c3ccc(F)cc3)c3ccc(F)cc3)sc2CC(=O)O)cnc1N : 80
O=C(O)Cc1sc(C(c2ccccc2)c2ccc(F)c(F)c2)nc1-c1ccc(F)cc1 (stereo not given) : 80

I = CS(=O)(=O)c1cccc(-c2nc(C(c3ccc(F)cc3)c3ccc(F)cc3)sc2CC(=O)O)c1
II = CS(=O)(=O)Nc1cccc(-c2nc(C(c3ccc(F)cc3)c3ccc(F)cc3)sc2CC(=O)O)c1
III = O=C(O)Cc1sc(NC(=O)c2ccccc2)nc1-c1ccc(Cl)cc1
IN: Rank the items in ascending order with respect to Efficacy. // rank by listing labels in the order requested
OUT: I, III, II

1 = O=C(O)Cc1sc(C(c2ccc(F)cc2)c2ccc(F)cc2)nc1-c1cc(F)nc(F)c1
2 = O=C(O)Cc1sc(CS(=O)(=O)c2ccc(Cl)cc2)nc1-c1ccc(Cl)cc1
3 = CC(=O)N1CCC(c2ccccc2)(c2nc(-c3ccc(Cl)cc3)c(CC(=O)O)s2)CC1
IN: Ascending sort, Efficacy. // ordering of labels required in reply
OUT: 2, 3, 1
(2: 30%, 3: 50%, 1: 80%)

P = O=C(O)Cc1sc(C(c2ccc(F)cc2)c2ccc(F)cc2)nc1-c1ccc(F)cc1
Q = O=C(O)Cc1sc(C(Cc2ccccc2)c2ccccc2)nc1-c1ccc(Cl)cc1 (stereo not given)
IN: Parameter metric = Efficacy. Return the lower-valued option from P and Q . Respond using the label that marks the chosen record.
OUT: Q
(Q: 50%, P: 80%)

1 = O=C(O)Cc1sc(C(c2ccc(F)cc2)c2ccc(F)cc2)nc1-c1ccco1
2 = O=C(O)Cc1sc(COc2ccc(Cl)cc2)nc1-c1ccc(Cl)cc1
IN: Recorded Efficacy values differ for 1 and 2 ; which one is higher? Label of pick, please.
OUT: 1

###

Target: Prostaglandin D2 receptor 2 (Homo sapiens)
Sequence (Q9Y5Y4 whole entry): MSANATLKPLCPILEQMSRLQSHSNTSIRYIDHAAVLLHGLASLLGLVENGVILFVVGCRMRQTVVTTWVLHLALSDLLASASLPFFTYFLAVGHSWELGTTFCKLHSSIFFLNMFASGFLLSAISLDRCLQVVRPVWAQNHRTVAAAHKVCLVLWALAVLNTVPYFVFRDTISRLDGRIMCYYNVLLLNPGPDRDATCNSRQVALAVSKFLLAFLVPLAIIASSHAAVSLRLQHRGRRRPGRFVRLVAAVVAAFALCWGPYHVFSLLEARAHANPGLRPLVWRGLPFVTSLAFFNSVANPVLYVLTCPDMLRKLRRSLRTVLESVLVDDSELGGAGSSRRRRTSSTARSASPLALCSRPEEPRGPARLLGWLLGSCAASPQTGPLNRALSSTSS
Assay: Displacement of[3H]PGD2 from human CRTH2 receptor expressed in african green monkey COS7 cells
Type: cell-based, COS-7
measurement_type: IC50 (µM)

P = O=C(O)Cc1sc(-c2ccco2)nc1-c1ccc(Cl)cc1
Q = Cc1nc(-c2ccc(Cl)cc2)c(CC(=O)O)s1
IN: // select label with min value of measured IC50 from [ P , Q ] The response must carry the label of the picked entry.
OUT: P
